Molecular target: BTK enzyme (recombinant full-length BTK, hBTK) (Homo sapiens (Human))
Sequence (Q06187 whole entry): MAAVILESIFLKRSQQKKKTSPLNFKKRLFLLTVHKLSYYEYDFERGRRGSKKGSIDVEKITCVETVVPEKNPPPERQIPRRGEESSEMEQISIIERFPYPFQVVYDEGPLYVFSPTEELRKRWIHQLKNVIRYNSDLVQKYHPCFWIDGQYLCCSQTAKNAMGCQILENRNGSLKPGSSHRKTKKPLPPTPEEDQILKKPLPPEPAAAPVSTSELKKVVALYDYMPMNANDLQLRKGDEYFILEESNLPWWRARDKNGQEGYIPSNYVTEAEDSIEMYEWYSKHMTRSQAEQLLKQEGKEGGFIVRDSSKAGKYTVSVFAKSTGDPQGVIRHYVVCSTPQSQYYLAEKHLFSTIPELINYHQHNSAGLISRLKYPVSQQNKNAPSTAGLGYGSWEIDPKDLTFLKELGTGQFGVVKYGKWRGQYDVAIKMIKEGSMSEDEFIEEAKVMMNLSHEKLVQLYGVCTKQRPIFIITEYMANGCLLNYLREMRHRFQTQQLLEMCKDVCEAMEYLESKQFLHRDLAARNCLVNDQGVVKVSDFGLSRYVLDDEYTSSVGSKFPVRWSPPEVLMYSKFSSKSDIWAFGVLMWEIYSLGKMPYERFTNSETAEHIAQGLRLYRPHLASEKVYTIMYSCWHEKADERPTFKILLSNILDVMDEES
Assay: Btk enzyme activity assay, LANCE TR-FRET
Settings: 50 pM hBTK, 2 μM biotin-A5-peptide, 25 μM ATP; 60 minute compound & enzyme incubation; read-out: BTK binding IC50
pIC50: −log10 of the molar value.
Measurement Kind: pIC50

Field request: pIC50 | item: C[C@H]1CO[C@@H](c2nc(-c3ccc(C(=O)Nc4cc(C(F)(F)F)ccn4)cc3F)c3c(N)nccn23)CN1[C@H]1CC[C@@](C)(C(=O)O)CC1
8.77

Field request: pIC50 | item: COc1cc(C(=O)Nc2cc(C(F)(F)F)ccn2)cc(F)c1-c1nc(C2(C)CCC(C)(C(=O)O)CC2)n2ccnc(N)c12 (centres unmarked)
8.89

Field request: pIC50 | item: CCOc1cc(C(=O)Nc2cc(C(F)(F)F)ccn2)ccc1-c1nc([C@@]2(C)CC[C@@](C)(C(=O)O)C2)n2ccnc(N)c12
8.38

Field request: pIC50 | item: Nc1nccn2c([C@@H]3CCC[C@H](C(=O)O)C3)nc(-c3ccc(C(=O)Nc4cc(C5CC5)ccn4)cc3F)c12
8.92

Field request: pIC50 | item: CCOc1cc(C(=O)Nc2cc(C(F)(F)F)ccn2)ccc1-c1nc([C@]23CC[C@](C(=O)O)(CC2O)C(O)C3)n2ccnc(N)c12 (some centres unmarked)
8.06

Field request: pIC50 | item: COc1cc(C(=O)Nc2cc(C(F)(F)F)ccn2)ccc1-c1nc(C2CCC(C)(C(=O)O)CC2)n2c(Cl)cnc(N)c12 (centres unmarked)
8.37

1: COc1cc(C(=O)Nc2cc(C(F)(F)F)ccn2)ccc1-c1nc([C@H]2CN(C3CC(C(=O)O)C3)[C@@H](C)CO2)n2ccnc(N)c12 (some centres unmarked)
2: CCOc1cc(C(=O)Nc2cc(C(F)(F)F)ccn2)ccc1-c1nc([C@@H]2CC[C@@H](C(=O)O)O2)n2ccnc(N)c12 [Example 117]
3: COc1cc(C(=O)Nc2cc(C(F)(F)F)ccn2)ccc1-c1nc([C@H]2CN(C3CCC(C)(C(=O)O)CC3)[C@@H](C)CO2)n2ccnc(N)c12 (some centres unmarked)
4: CCOc1cc(C(=O)Nc2cc(C(F)(F)F)ccn2)ccc1-c1nc(C23CCC(C(=O)O)(CC2)C2CC23)n2ccnc(N)c12 (centres unmarked)
5: C[C@@]1(C(=O)O)CCC[C@H](c2nc(-c3ccc(C(=O)Nc4cc(C5CC5)ccn4)cc3)c3c(N)nccn23)C1
List from greatest to least pIC50. Quick reminder: the answer is the labels in the order asked.
4, 5, 3, 1, 2

----------
System: HeLa cells
Test: [3H] Adenosine uptake assay
Type: cell-based
Conditions: Homo sapiens, HeLa, accumulation of tritiated adenosine into HeLa cells; compound concentration range 10 μM to 0.032 nM; read-out: ADU inhibition IC50 (adenosine uptake inhibition potency)
Measurement Kind: IC50 (nM)

Example entries and their recorded answers appear below.
Field request: IC50 | item: CCOc1cc(C(=O)Nc2cc(C(F)(F)F)ccn2)ccc1-c1nc([C@@H]2CC[C@](C(=O)O)(C(C)C)C2)n2c(Cl)cnc(N)c12
10000

Field request: IC50 | item: C[C@]1(C(=O)O)CC[C@](C)(c2nc(-c3ccc(C(=O)Nc4cc(C(F)(F)F)ccn4)cc3)c3c(N)nccn32)CC1
1450

Field request: IC50 | item: CC1(C(=O)O)CCC(C)(c2nc(-c3ccc(C(=O)Nc4cc(C(F)(F)F)ccn4)cc3)c3c(N)nccn23)C1 (stereo not drawn)
1700

I: C[C@@]1(C(=O)O)CCC[C@H](c2nc(-c3ccc(C(=O)Nc4cc(C5CC5)ccn4)cc3F)c3c(N)nccn23)C1
II: CC(C)(C(=O)O)N1CCC[C@@H](c2nc(-c3ccc(C(=O)Nc4cc(C(F)(F)F)ccn4)cc3F)c3c(N)nccn23)C1
// task: argmin of IC50 over [ I , II ] When you have decided, please share the label of that item.
II

----------
Molecular target: BTK enzyme (recombinant full-length BTK, hBTK) (Homo sapiens (Human))
Test: Btk enzyme activity assay, LANCE TR-FRET
Conditions: 50 pM hBTK, 2 μM biotin-A5-peptide, 25 μM ATP; 60 minute compound & enzyme incubation; read-out: BTK binding IC50
Procedure: Btk Enzyme Activity Assay Methods BTK enzymatic activity was determined with the LANCE (Lanthanide Chelate Excite) TR-FRET (Time-resolved fluorescence resonance energy transfer) assay. […] After 60 minutes incubation with detection reagents, reaction plates were read on a PerkinElmer EnVision plate reader using standard TR-FRET protocol.
pIC50: −log10 of the molar value.
Measurement Kind: pIC50

Example entries and their recorded answers appear below.
Field request: pIC50 | item: CCOc1cc(C(=O)Nc2cc(C3CC3)ccn2)cc(F)c1-c1nc([C@@]2(C)CC[C@](C)(C(=O)O)C2)n2ccnc(N)c12
9.24

Field request: pIC50 | item: Nc1nccn2c(-c3ccc(F)c(C(=O)O)c3)nc(-c3ccc(C(=O)Nc4cc(C(F)(F)F)ccn4)cc3)c12
9.00

Field request: pIC50 | item: CC1(C)[C@H](c2nc(-c3ccc(C(=O)Nc4cc(C(F)(F)F)ccn4)cc3Cl)c3c(N)nccn23)CC[C@]1(C)C(=O)O
9.23

Field request: pIC50 | item: Nc1nccn2c(C34CCC(C(=O)O)(CC3)CC4)nc(-c3ccc(C(=O)Nc4cc(C(F)(F)F)ccn4)cc3Cl)c12
9.42

Field request: pIC50 | item: CC1(C)[C@H](C(=O)O)CC[C@]1(C)c1nc(-c2ccc(C(=O)Nc3cc(C(F)(F)F)ccn3)cc2)c2c(N)nccn12
8.28

Field request: pIC50 | item: CC(C)[C@@]1(C(=O)O)CC[C@@H](N2C[C@H](c3nc(-c4ccc(C(=O)Nc5cc(C(F)(F)F)ccn5)cc4F)c4c(N)ncc(Cl)n34)OC[C@@H]2C)C1
9.12

I: CCOc1cc(C(=O)Nc2cc(C(F)(F)F)ccn2)ccc1-c1nc(C23C4C5C2C2C3C4C52C(=O)O)n2ccnc(N)c12 (stereo not shown)
II: CCOc1cc(C(=O)Nc2cc(C(F)(F)F)ccn2)c(F)cc1-c1nc(C2(C)CCC(C)(C(=O)O)CC2)n2ccnc(N)c12 (stereo not shown)
// task: argmin of pIC50 over [ I , II ] When you have decided, please share the label of that item.
II

P: CCOc1cc(C(=O)Nc2cc(C(F)(F)F)ccn2)ccc1-c1nc(C2CC3(CC(C(=O)O)C3)C2)n2ccnc(N)c12 (stereo not shown)
Q: Nc1nccn2c(-c3ccc(C(=O)O)[nH]3)nc(-c3ccc(C(=O)Nc4cc(C(F)(F)F)ccn4)cc3)c12
Could you please tell me which of these two has the higher pIC50: P or Q ? When you have decided, please share the label of that item.
P
(P: 9.29, Q: 8.70)

A: C[C@H]1CO[C@@H](c2nc(-c3ccc(C(=O)Nc4cc(C(F)(F)F)ccn4)cc3)c3c(N)nccn23)CN1[C@H]1CC[C@](C)(C(=O)O)CC1
B: CN1CC[C@H](c2nc(-c3ccc(C(=O)Nc4cc(C(F)(F)F)ccn4)cc3)c3c(N)nccn23)C[C@@H]1C(=O)O
C: Nc1nccn2c([C@@H]3CCN[C@@H](C(=O)O)C3)nc(-c3ccc(C(=O)Nc4cc(C(F)(F)F)ccn4)cc3)c12
D: Nc1nccn2c([C@H]3CCN[C@@H](C(=O)O)C3)nc(-c3ccc(C(=O)Nc4cc(C(F)(F)F)ccn4)cc3)c12
Rank items: key pIC50, increasing. Quick reminder: the answer is the labels in the order asked.
B, C, D, A

A: C[C@H]1CO[C@@H](c2nc(-c3ccc(C(=O)Nc4cc(C(F)F)ccn4)cc3)c3c(N)nccn23)CN1[C@H]1CC[C@](C)(C(=O)O)CC1
B: Nc1nccn2c([C@H]3CC[C@H](CC(=O)O)C3)nc(-c3ccc(C(=O)Nc4cc(C(F)(F)F)ccn4)cc3)c12
Could you please tell me which of these two has the higher pIC50: A or B ? When you have decided, please share the label of that item.
B
(B: 9.54, A: 9.00)

A: CC(C)C1(C(=O)O)CCC(C)(c2nc(-c3ccc(C(=O)Nc4cc(C(F)(F)F)ccn4)cc3)c3c(N)nccn23)C1 (stereo not shown) [Example 144]
B: CCOc1cc(C(=O)Nc2cc(C3CC3)ccn2)cc(F)c1-c1nc(C2(C)CCC(C)(C(=O)O)CC2)n2ccnc(N)c12 (stereo not shown)
C: CCOc1cc(C(=O)Nc2cc(C(F)(F)F)n(C)n2)ccc1-c1nc([C@H]2CC[C@](C(=O)O)(C(C)C)C2)n2ccnc(N)c12
D: CCOc1cc(C(=O)Nc2cc(C(F)(F)F)ccn2)ccc1-c1nc(C23CCCC(C(=O)O)(CC2)CC3)n2ccnc(N)c12
E: C[C@@]1(C(=O)O)CC[C@](C)(c2nc(-c3ccc(C(=O)Nc4cc(C(F)(F)F)ccn4)cc3)c3c(N)nccn23)C1
List from greatest to least pIC50. Quick reminder: the answer is the labels in the order asked.
D, B, A, E, C
(D: 9.41, B: 9.12, A: 8.60, E: 8.09, C: 7.56)

A: COc1cc(C(=O)Nc2cc(C(F)(F)F)ccn2)cc(F)c1-c1nc(C23CCC(C(=O)O)(CC2)CC3)n2ccnc(N)c12
B: COc1cc(C(=O)Nc2cc(C(F)(F)F)ccn2)ccc1-c1nc([C@@H]2CCC[C@H](C(=O)O)C2)n2ccnc(N)c12
// task: argmin of pIC50 over [ A , B ] When you have decided, please share the label of that item.
B

1: CCOc1cc(C(=O)Nc2cc(C(F)(F)F)ccn2)ccc1-c1nc([C@H]2CC[C@@](C)(C(=O)O)C2(C)C)n2ccnc(N)c12
2: CCOc1cc(C(=O)Nc2cc(C(F)(F)F)ccn2)ccc1-c1nc([C@]2(C)CC[C@@](C)(C(=O)O)C2)n2ccnc(N)c12
Could you please tell me which of these two has the higher pIC50: 1 or 2 ? When you have decided, please share the label of that item.
1
(1: 9.21, 2: 8.85)
